// values below are reported logP
Assay Protocol: method code SF, from DOI: 10.1007/978-3-0348-5795-6_10, PMID: 954948
Readout Label: logP

| Molecule | Readout Label | Result |
| --- | --- | --- |
| CCN=C=S | logP | 1.47 |
| CC(N=C=S)c1ccccc1 (stereo not given) | logP | 3.46 |
| S=C=Nc1ccc(-c2ccccc2)cc1 | logP | 4.66 |
| S=C=Nc1ccc(Oc2ccccc2)cc1 | logP | 4.75 |
| Oc1ccc(N=C=S)cc1 | logP | 2.74 |
| O=C(c1ccccc1)c1ccc(N=C=S)cc1 | logP | 4.88 |
| O=C(Oc1ccc(N=C=S)cc1)c1ccccc1 | logP | 4.9 |
| S=C=Nc1ccc2cc3ccccc3cc2c1 | logP | 5.7 |
| S=C=NCc1ccccc1 | logP | 3.16 |
| S=C=NCc1cccc2ccccc12 | logP | 4.42 |
| S=C=Nc1ccc(Nc2ccccc2)cc1 | logP | 4.94 |
| S=C=Nc1ccc(/N=N/c2ccccc2)cc1 | logP | 5.55 |
| S=C=Nc1ccc2ccccc2c1 | logP | 4.34 |
| S=C=Nc1ccc(Cc2ccccc2)cc1 | logP | 4.4 |
| O=S(c1ccccc1)c1ccc(N=C=S)cc1 (stereo not given) | logP | 4.4 |

----------
Assay Protocol: method code SF, from DOI: 10.1007/978-3-0348-5795-6_10, PMID: 954948

| Sample Smiles | logP |
| --- | --- |
| S=C=NC(c1ccccc1)(c1ccccc1)c1ccccc1 | 7.02 |
| S=C=Nc1cccc2ccccc12 | 4.34 |
| S=C=NC(c1ccccc1)c1ccccc1 | 5.09 |
| S=C=NCCc1ccccc1 | 3.47 |
